System: porcine liver esterase (PLE)
Experiment: Hydrolysis of prodrug in porcine liver esterase (PLE)
Type: in vitro ADME
Details: pig, porcine liver esterase (PLE) solution, PLE 2.0 unit/mL, 10% DMSO, 37 °C; read-out: T1/2 (time required for 50% degradation of prodrug) (converted)
quantity kind: half-life at 0.25 mg/mL (LCZ 2HCl Eq.)

- molecule: "CCCCCCCCCCOC(=O)COCCN1CCN([C@@H](c2ccccc2)c2ccc(Cl)cc2)CC1 [LCZ-D, Levocetirizine decanoate]"
  measurement target: "porcine liver esterase (PLE)"
  measured result: "~1 h"

Look at this molecule and give its reported half-life at 0.25 mg/mL (LCZ 2HCl Eq.). CCCCCCCCCCCCOC(=O)COCCN1CCN([C@@H](c2ccccc2)c2ccc(Cl)cc2)CC1 [LCZ-L, Levocetirizine laurate]
~2 h
